Experiment: Human liver microsome (HLM) assay
Format: in vitro ADME
Settings: human liver microsomes, 5 μM test compound
Marks after values point to notes of the source that are not given here.
Listing of entries alongside the reported % remain (HLM, 2 h).

| chemSmiles | % remain (HLM, 2 h) |
| --- | --- |
| O=C(Nc1cccc(Oc2ccc3c(/C=C/c4ccc(Cl)cc4)n[nH]c3c2)c1)c1ccccc1 | 69* % |
| COc1cc(-c2ccc3c(/C=C/c4ccc(OC)c(OC)c4)n[nH]c3c2)ccc1O | 98% |
| CNC(=O)c1ccccc1Sc1ccc2c(/C=C/c3ccccn3)n[nH]c2c1 | 29% |
| Cc1cc(C(=O)Nc2cccc(C(=O)c3ccc4c(/C=C/c5ccccn5)n[nH]c4c3)c2)on1 | 0% |
| O=C(NCC(F)(F)F)c1ccccc1Sc1ccc2c(/C=C/c3ccccn3)n[nH]c2c1 | 31% |

Kindly consider the entry below.
Find the recorded % remain (HLM, 2 h) belonging to `O=C(Nc1nccs1)c1ccccc1Sc1ccc2c(/C=C/c3ccccn3)n[nH]c2c1` and report it.
7%

----------
Biological target: CDK2/Cyclin A (Homo sapiens, UniProt P24941)
Assay: CDK2/Cyclin A assay ([32P]ATP, Rb fragment)
Format: biochemical
Conditions: Table 2
readoutType: Ki (nM)
Response body: numeric value in nM, unit text excluded.

Please review the entries below; each comes with its answer.
| chemSmiles | testTarget | readoutType | readoutUnit | assayValue |
| --- | --- | --- | --- | --- |
| COc1cc(O)ccc1-c1ccc2c(-c3nc4c(N5CCN(C)CC5)cccc4[nH]3)n[nH]c2c1 | CDK2/Cyclin A (Homo sapiens, UniProt P24941) | Ki | nM | 160 |
| COc1c(O)cccc1-c1ccc2c(-c3nc4ccccc4[nH]3)n[nH]c2c1 | CDK2/Cyclin A (Homo sapiens, UniProt P24941) | Ki | nM | 89 |

Find the recorded Ki belonging to `CNC(=O)c1ccc2[nH]c(-c3n[nH]c4cc(-c5ccc(O)cc5OC)ccc34)nc2c1` and report it.
80

----------
Target: human CHK1 (FL-CHK1) (Homo sapiens, UniProt O14757)
Construct: C-terminally His-tagged full-length human CHK1 (FL-CHK1); made in house; host or cells: baculovirus/insect cell system
Sequence (O14757 whole entry): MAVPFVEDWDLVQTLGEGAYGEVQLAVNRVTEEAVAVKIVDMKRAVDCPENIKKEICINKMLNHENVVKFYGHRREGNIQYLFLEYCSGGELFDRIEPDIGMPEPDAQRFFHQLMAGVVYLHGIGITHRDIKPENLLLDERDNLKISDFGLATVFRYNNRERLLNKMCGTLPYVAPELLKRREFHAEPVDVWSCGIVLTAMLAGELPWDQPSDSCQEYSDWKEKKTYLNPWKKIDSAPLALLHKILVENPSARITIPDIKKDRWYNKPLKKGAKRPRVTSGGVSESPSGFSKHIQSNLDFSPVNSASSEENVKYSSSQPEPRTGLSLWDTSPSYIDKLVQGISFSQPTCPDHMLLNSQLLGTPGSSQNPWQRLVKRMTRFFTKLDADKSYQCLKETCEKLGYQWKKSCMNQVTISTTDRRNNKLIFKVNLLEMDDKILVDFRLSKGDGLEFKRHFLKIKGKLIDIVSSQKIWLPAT
Test: CHK1 assay (coupled spectrophotometric, Syntide-2)
Assay type: biochemical
Details: Table 4; compound at 20 μM
Listing of entries alongside the reported CHK-1 @ 20 μM.

Please review the entries below; each comes with its answer.
| compound | testTarget | CHK-1 @ 20 μM |
| --- | --- | --- |
| O=C(Nc1cc[nH]n1)c1ccc2c(-c3nc4ccccc4[nH]3)n[nH]c2c1 | human CHK1 (FL-CHK1) (Homo sapiens, UniProt O14757) | 52.4 |
| O=C(Nc1cnccn1)c1ccc2c(-c3nc4ccccc4[nH]3)n[nH]c2c1 [drawing 1245] | human CHK1 (FL-CHK1) (Homo sapiens, UniProt O14757) | 36.3 |
| O=C(Nc1cc(O)[nH]n1)c1ccc2c(-c3nc4ccccc4[nH]3)n[nH]c2c1 | human CHK1 (FL-CHK1) (Homo sapiens, UniProt O14757) | 38.6 |
| O=C(Nc1ccc2[nH]c(=O)[nH]c2c1)c1ccc2c(-c3nc4ccccc4[nH]3)n[nH]c2c1 [drawing 1232] | human CHK1 (FL-CHK1) (Homo sapiens, UniProt O14757) | 32.3 |

Provide the documented CHK-1 @ 20 μM with human CHK1 (FL-CHK1) (Homo sapiens, UniProt O14757) as the system for O=C(Nc1ncnc2[nH]cnc12)c1ccc2c(-c3nc4ccccc4[nH]3)n[nH]c2c1 [drawing 1250]
38.6

O=C(NC1CCS(=O)(=O)C1)c1ccc2c(-c3nc4ccccc4[nH]3)n[nH]c2c1 (stereo not drawn) [drawing 1226] , same question.
24.2

----------
System: human umbilical vein endothelial cells (HUVEC)
Test: HUVEC proliferation assay (VEGF-stimulated, MTT)
Format: cell-based
Conditions: Homo sapiens, HUVEC, + albumin; read-out: HUVEC + albumin IC50
Listing of entries alongside the reported IC50.

| chemSmiles | IC50 |
| --- | --- |
| C#CCNC(=O)c1ccccc1Nc1ccc2c(/C=C/c3ccccn3)n[nH]c2c1 | > 10 nM |

Find the recorded IC50 belonging to `CNC(=O)c1cccc(F)c1Sc1ccc2c(/C=C/c3ccccn3)n[nH]c2c1` and report it.
> 100 nM

`Cc1nc(/C=C/c2n[nH]c3cc(C(=O)c4cccc(NC(=O)c5ccccc5)c4)ccc23)cs1` , same question.
1 to 3 nM

----------
Test: Determination of inhibitor concentration in mouse plasma after intraperitoneal and oral dosing
Type: in vivo
Settings: IP, 25 mg/kg, vehicle PEG400:H2O pH 2.3 30:70
readoutType: plasma half-life (T1/2) (h)
Response body: numeric value in h, unit text excluded.

Please review the entries below; each comes with its answer.
| molecule | plasma half-life (T1/2) (h) |
| --- | --- |
| O=C(Nc1ccccc1)c1ccccc1Sc1ccc2c(/C=C/c3ccccn3)n[nH]c2c1 | 1.2 |
| CCn1nc(C)cc1C(=O)Nc1cccc(C(=O)c2ccc3c(/C=C/c4ccccn4)n[nH]c3c2)c1 | 2.9 |

Find the recorded plasma half-life (T1/2) belonging to `C#CCNC(=O)c1ccccc1Sc1ccc2c(/C=C/c3ccccn3)n[nH]c2c1` and report it.
1.4

C[C@@H]1C[C@H]1C(=O)Nc1cccc(C(=O)c2ccc3c(/C=C/c4ccccn4)n[nH]c3c2)c1 (racemic) , same question.
1.2

CCOCCNC(=O)c1ccccc1Sc1ccc2c(/C=C/c3ccccn3)n[nH]c2c1 [Example 35(z)] , same question.
1.8

`CCCNC(=O)c1ccccc1Sc1ccc2c(/C=C/c3ccccn3)n[nH]c2c1` , same question.
1.4

`Cn1nc(C(C)(C)C)cc1C(=O)Nc1cccc(C(=O)c2ccc3c(/C=C/c4ccccn4)n[nH]c3c2)c1` , same question.
3.2

----------
Assay: Determination of inhibitor concentration in mouse plasma after intraperitoneal and oral dosing
Type: in vivo
Settings: PO, 50 mg/kg, vehicle PEG400:H2O pH 2.3 60:40

| chemSmiles | plasma half-life (T1/2) |
| --- | --- |
| O=C(Nc1cccc(C(=O)c2ccc3c(/C=C/c4ccccn4)n[nH]c3c2)c1)c1ccccc1 | 2.0 h |
| O=C(Nc1cccc(C(=O)c2ccc3c(/C=C/c4ccccc4)n[nH]c3c2)c1)c1ccccc1 | ∞ |
| O=C(Nc1cccc(C(=O)c2ccc3c(-c4nc5cccnc5[nH]4)n[nH]c3c2)c1)c1ccccc1 | BLQ |

----------
Listing of entries alongside the reported AUClast.
Test: Determination of inhibitor concentration in mouse plasma after intraperitoneal and oral dosing
Assay type: in vivo
Details: PO, 50 mg/kg, vehicle PEG400:H2O pH 2.3 30:70
Response body: numeric value in ng·h/mL, unit text excluded.

| compound | AUClast [ng·h/mL] |
| --- | --- |
| Cc1ccc(CNC(=O)c2ccccc2Sc2ccc3c(/C=C/c4ccccn4)n[nH]c3c2)o1 [Example 35(h)] | 26 |
| Cn1cccc1C(=O)NNC(=O)c1ccccc1Sc1ccc2c(/C=C/c3ccccn3)n[nH]c2c1 [Example 35(e)] | 1503 |
| CNC(=O)c1ccccc1Sc1ccc2c(/C=C/c3ccccn3)n[nH]c2c1 [Example 33(a)] | 19067 |

Find the recorded AUClast belonging to O=C(NC1CC1)c1ccccc1Sc1ccc2c(/C=C/c3ccccn3)n[nH]c2c1 [Example 33(e)] and report it.
13290

CC(C)ONC(=O)c1ccccc1Sc1ccc2c(/C=C/c3ccccn3)n[nH]c2c1 [Example 35(k)] , same question.
5529

O=C(c1cccc(NC(=O)c2ccc(Cl)s2)c1)c1ccc2c(/C=C/c3ccccn3)n[nH]c2c1 [Example 41(o)] , same question.
14717

O=C(NCC(F)(F)F)c1ccccc1Sc1ccc2c(/C=C/c3ccccn3)n[nH]c2c1 [Example 33(f)] , same question.
1436

CCNC(=O)c1ccccc1Sc1ccc2c(/C=C/c3ccccn3)n[nH]c2c1 [Example 35(x)] , same question.
3516

O=C(Nc1cccc(Oc2ccc3c(/C=C/c4c[nH]cn4)n[nH]c3c2)c1)c1ccccc1 [Example 32(a)] , same question.
4190

CCn1nc(C)cc1C(=O)Nc1cccc(C(=O)c2ccc3c(/C=C/c4ccccn4)n[nH]c3c2)c1 [Example 41(a)] , same question.
48998

----------
Experiment: Determination of inhibitor concentration in mouse plasma after intraperitoneal and oral dosing
Assay type: in vivo
Conditions: female, IP, 25 mg/kg, vehicle PEG400:H2O pH 2.3 60:40, read-out: Cmin (7 hr conc.)
readoutType: concentration at 7 h (µg/mL)
Response body: numeric value in µg/mL, unit text excluded.

Please review the entries below; each comes with its answer.
| compound | readoutUnit | assayValue |
| --- | --- | --- |
| O=C(c1cccc(NC(=O)c2ccccn2)c1)c1ccc2c(/C=C/c3ccccn3)n[nH]c2c1 [Example 41(aa)] | µg/mL | 0.124 |
| Cc1cc(C(=O)Nc2cccc(C(=O)c3ccc4c(/C=C/c5ccccn5)n[nH]c4c3)c2)n[nH]1 [Example 41(g)] | µg/mL | 0 |

Find the recorded concentration at 7 h belonging to Cc1ccc2cc(NC(=O)c3ccccc3Sc3ccc4c(/C=C/c5ccccn5)n[nH]c4c3)ccc2n1 [Example 33(b)] and report it.
0.902
